// data source = the supplement of paper PMC10724198

# Tested on: Saccharomyces cerevisiae
# assay: protein stability index of tFT-peptide fusion (C-terminal peptide) (PSI (0-1 scale)); higher = more stable (slower turnover)
# run.conditions: genetic background: das1 deletion; temperature: 30 C
readout.kind: protein stability index
Lab note: jot down the number only; don't add units.

Return protein stability index (reported value) for this sequence: GASAEDNTHPDE [NAB6 C-terminal 12 aa]
0.694

Return protein stability index (reported value) for this sequence: KHVGKGCGYSYH [STP4 C-terminal 12 aa]
0.696

Return protein stability index (reported value) for this sequence: KQYSSPEICFRV [YBR134W C-terminal 12 aa]
0.692

Return protein stability index (reported value) for this sequence: KAEASEAAHDEL [CPR5 C-terminal 12 aa]
0.695

Return protein stability index (reported value) for this sequence: IYYKSQNWRREC [YBR219C C-terminal 12 aa]
0.707

More entries:
Return protein stability index (reported value) for this sequence: IRKPDDKFSSFI [YOR072W C-terminal 12 aa]
0.702

Return protein stability index (reported value) for this sequence: VTRAAESLGFTV [MIP6 C-terminal 12 aa]
0.7

Return protein stability index (reported value) for this sequence: TREPISYKLDIQ [ERO1 C-terminal 12 aa]
0.678

Return protein stability index (reported value) for this sequence: YTNLIASKVKKQ [YKL177W C-terminal 12 aa]
0.714

Return protein stability index (reported value) for this sequence: VYARDAAALRPV [SCS3 C-terminal 12 aa]
0.716

Return protein stability index (reported value) for this sequence: ACFTRLPTPAIL [TRM8 C-terminal 12 aa]
0.68

Return protein stability index (reported value) for this sequence: AVKINRNGKPRI [TAO3 C-terminal 12 aa]
0.698
